biological target: Jak2 (UniProt O60674); assay: phosphorylation enrichment, bacterial display (enrichment ratio); higher = better substrate or ligand; peptides without Tyr show the background
Sequence (O60674 whole entry, looked up): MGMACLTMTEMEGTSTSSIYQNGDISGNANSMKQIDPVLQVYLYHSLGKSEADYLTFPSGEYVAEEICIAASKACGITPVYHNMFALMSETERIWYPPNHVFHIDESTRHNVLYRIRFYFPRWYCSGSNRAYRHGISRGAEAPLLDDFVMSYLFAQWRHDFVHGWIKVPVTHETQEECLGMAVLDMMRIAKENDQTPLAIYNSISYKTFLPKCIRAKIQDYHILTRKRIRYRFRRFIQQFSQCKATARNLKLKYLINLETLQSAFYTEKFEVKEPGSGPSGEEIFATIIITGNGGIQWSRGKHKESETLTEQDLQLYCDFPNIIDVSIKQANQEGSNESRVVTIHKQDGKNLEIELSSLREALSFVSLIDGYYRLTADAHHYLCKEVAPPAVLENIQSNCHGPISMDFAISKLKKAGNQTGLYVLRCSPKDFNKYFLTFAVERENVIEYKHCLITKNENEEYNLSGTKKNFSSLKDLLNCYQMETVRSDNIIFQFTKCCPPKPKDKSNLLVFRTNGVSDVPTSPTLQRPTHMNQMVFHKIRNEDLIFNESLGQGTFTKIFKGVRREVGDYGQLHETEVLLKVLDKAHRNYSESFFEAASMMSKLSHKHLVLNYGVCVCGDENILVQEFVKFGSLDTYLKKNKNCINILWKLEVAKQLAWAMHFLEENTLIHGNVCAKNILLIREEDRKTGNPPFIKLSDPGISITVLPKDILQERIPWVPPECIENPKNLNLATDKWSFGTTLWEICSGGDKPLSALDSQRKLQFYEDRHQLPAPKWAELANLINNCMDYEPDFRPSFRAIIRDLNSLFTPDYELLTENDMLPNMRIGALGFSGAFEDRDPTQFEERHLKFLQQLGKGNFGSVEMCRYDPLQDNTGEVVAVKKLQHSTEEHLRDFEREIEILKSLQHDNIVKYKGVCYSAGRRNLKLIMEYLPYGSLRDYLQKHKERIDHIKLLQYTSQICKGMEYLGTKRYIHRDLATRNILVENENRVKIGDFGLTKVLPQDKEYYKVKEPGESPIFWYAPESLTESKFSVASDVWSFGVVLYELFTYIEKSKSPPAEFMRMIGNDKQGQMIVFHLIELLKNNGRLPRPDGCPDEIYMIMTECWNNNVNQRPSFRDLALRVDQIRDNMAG
Reported phosphorylation enrichment values for a set of sequences

chain	phosphorylation enrichment
KANEFYPVVII [ADAMTS18_Y765_L769I_YF]	1.06
CTTIHYNYKCN [TP53_Y234_M237K]	0.62
RYVTRHIYNRE [HLA-DQB1_Y62_Y62H]	0.589
QNTGDYYDLYG [PTPN11_Y62]	5.11
FPRAWCRRSIA [KIAA1109_Y4272_Y4272C]	0.588
PTKNDYWAMPA [WWOX_Y287_L291P]	2.69
FRDMDYRSFPH [RBM10_Y41_R46H_YF]	0.667
GDLTDYLMKIL [ACTA1_Y190_R185G]	0.648
ELTAKYLNYYR [P3H4_Y181_Q186R]	0.616
IFHLSYHHNCE [PDE6B_Y227_L228H_YF]	0.831

Using the record for VHKEGYNKLNQ [ZNF676_Y98] , report its phosphorylation enrichment.
0.668

Another sequence: RAHARYCADAC [ACOT4_Y52_R57C]
0.61

Another sequence: MDFRSYPREFG [RBM10_Y44_YF]
0.63

###

target: Hck (UniProt P08631); test: phosphorylation enrichment, bacterial display (enrichment ratio); higher = better substrate or ligand; peptides without Tyr show the background
Sequence (P08631 whole entry, looked up): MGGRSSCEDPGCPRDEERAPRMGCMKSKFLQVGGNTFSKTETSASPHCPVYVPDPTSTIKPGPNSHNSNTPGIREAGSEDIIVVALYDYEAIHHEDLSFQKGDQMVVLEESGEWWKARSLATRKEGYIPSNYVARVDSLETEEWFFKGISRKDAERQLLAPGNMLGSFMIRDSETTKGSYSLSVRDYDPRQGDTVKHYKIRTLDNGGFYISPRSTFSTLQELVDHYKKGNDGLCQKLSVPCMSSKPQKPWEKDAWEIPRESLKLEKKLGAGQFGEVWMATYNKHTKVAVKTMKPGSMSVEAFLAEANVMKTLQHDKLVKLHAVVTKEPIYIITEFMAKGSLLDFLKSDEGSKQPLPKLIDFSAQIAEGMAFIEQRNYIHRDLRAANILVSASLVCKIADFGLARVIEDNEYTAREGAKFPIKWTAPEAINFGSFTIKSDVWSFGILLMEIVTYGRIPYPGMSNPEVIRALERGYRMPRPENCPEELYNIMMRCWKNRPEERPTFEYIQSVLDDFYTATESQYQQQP
# label = y if phosphorylation enrichment >= 0.6 else n

Please review the following examples before continuing.
chain	target	labelClass
YLGEEYVKAVG [TF_Y674]	Hck (UniProt P08631)	n
PQDSAYHSGIQ [FLG_Y3940_S3935P]	Hck (UniProt P08631)	n
HVLEEYKPKQG [SAXO2_Y37_P34L]	Hck (UniProt P08631)	y
KVDKEYEVHVR [GHR_Y226_R229H]	Hck (UniProt P08631)	n
ARRHPYFFAPE [ALB_Y172_Y174F]	Hck (UniProt P08631)	n

Determine whether measured phosphorylation enrichment meets or exceeds 0.6 for SVTCTYSPAPN [TP53_Y126_L130P]
n

Another sequence: KVITDYFVDMK [MPP4_Y566_YF]
n

Another sequence: FLRKEYGGVNV [CBR3_Y81_L84V]
n

###

Reported phosphorylation enrichment values for a set of sequences
tested on: AncSZ; assay: phosphorylation enrichment, bacterial display (enrichment ratio); higher = better substrate or ligand; peptides without Tyr show the background
Form rule: numeric answer, no unit written next to it.

Example sequences with recorded phosphorylation enrichment:
chain	phosphorylation enrichment
ITNVLYHVVGW [GBA_Y412_L410V]	1.06
KERNQYGEVMV [MMP21_Y347]	0.587
VVEVTYDDVPI [FLNB_Y1308]	2.02
GGGCGYNRSSG [FUS_Y232_G230C]	0.663
EQQRAYLEGTC [HLA-C_Y183_L180Q]	0.939

Using the record for FADGVYQALEE [DUOX2_Y70_YF] , report its phosphorylation enrichment.
1.49

Another sequence: NYRPGYNNFYN [USH2A_Y467]
0.697

Another sequence: VATRWYRSPEL [CDKL5_Y177]
0.834

Another sequence: EPNSRYTCKLE [USH2A_Y3745_Y3747C]
1.02

Another sequence: PLRPDYQEPSR [DDR2_Y481]
1.21

Another sequence: SSREGYVSHHN [FAM83B_Y433]
0.548

Another sequence: ILGLEYSLRVP [HELZ2_Y1304]
1.03

Another sequence: ECKFLYSRKEG [PTPN11_Y263_L261F]
0.969

Another sequence: TKDTIYKQPMF [GBA_Y451_F450I]
0.704

###

target: EPHB2 (UniProt P29323); experiment: phosphorylation enrichment, bacterial display (enrichment ratio); higher = better substrate or ligand; peptides without Tyr show the background
Sequence (P29323 whole entry, looked up): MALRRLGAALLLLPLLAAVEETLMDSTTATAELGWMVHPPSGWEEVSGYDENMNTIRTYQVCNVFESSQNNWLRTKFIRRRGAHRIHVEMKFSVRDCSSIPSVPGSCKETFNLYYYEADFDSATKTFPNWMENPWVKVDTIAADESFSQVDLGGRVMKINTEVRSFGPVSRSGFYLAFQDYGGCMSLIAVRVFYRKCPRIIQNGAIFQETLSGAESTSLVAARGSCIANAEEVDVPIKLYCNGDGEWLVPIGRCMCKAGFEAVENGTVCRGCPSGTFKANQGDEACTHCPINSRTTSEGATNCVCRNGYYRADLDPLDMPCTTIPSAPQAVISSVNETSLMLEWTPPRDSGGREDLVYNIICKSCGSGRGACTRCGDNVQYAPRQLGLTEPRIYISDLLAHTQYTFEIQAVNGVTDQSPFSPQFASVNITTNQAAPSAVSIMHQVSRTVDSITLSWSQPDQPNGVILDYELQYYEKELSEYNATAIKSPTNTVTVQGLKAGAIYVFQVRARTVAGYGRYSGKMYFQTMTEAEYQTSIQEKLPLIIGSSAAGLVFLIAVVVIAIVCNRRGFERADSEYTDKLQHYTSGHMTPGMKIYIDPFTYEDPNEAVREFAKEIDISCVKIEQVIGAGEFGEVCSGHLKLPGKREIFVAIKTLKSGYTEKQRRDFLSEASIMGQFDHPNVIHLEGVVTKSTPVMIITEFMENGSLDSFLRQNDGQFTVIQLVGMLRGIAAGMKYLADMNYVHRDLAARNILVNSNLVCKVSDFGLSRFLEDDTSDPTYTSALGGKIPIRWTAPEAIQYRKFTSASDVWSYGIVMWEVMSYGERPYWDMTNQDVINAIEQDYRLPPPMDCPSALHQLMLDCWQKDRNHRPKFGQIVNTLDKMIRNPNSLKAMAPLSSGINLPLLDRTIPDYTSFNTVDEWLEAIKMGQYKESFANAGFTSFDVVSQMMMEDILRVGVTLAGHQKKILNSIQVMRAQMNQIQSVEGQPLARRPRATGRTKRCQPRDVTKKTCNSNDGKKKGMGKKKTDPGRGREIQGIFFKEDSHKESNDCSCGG
Reported phosphorylation enrichment values for a set of sequences

chain	result
MIHSAYALGGL [CPS1_Y590_R587H]	0.428
CTTIHYNYKCN [TP53_Y234_M237K]	0.539
SDFSRYARTSI [TERT_Y949_S948R_YF]	0.466
KRGIDYILWHM [FRMD1_Y225_R228W]	0.824

Using the record for LKVQVYILGRE [ASS1_Y359_G356V] , report its phosphorylation enrichment.
1.88

Another sequence: LQTYRYHGHSM [PDHA1_Y289]
0.337

Another sequence: DLVSEYQQFQD [TUBB3_Y422_YF]
0.662

###

biological target: SHP2-C SH2; test: SH2 binding enrichment of the phosphorylated peptide, bacterial display (enrichment ratio); higher = better substrate or ligand; peptides without Tyr show the background
# label = Met if SH2 binding enrichment >= 0.8 else Not met

Please review the following examples before continuing.
chain	labelClass
RASDYYSQQMA [GBP6_Y334_A331S]	Not met
NTGDDYDLYGG [PTPN11_Y63_Y62D]	Not met
HLLRIYFDITD [MMP27_Y307_W304L_YF]	Not met
SSTAMYSAAGR [PSMB1_Y8_P11A]	Not met
RAADFYSQQMA [GBP6_Y334_YF]	Not met
PSAELYSFALP [PDGFRB_Y716_N718Y_YF]	Not met
YGSSSYRGAGG [RPA2_Y14_G15R]	Not met
RPAPQYPHQVP [ADAM12_Y895]	Not met
SEKIVYGHLDD [ACO2_Y71]	Met
KDQGIYEDYVE [MYL6_Y86_T85I]	Met

Determine whether measured SH2 binding enrichment meets or exceeds 0.8 for VVIVLYFSLWK [SLC6A2_Y249]
Met

Another sequence: KAEELYIGVTV [EFHC2_Y509]
Not met

###

target: Grb2 SH2 (UniProt P62993); test: SH2 binding enrichment of the phosphorylated peptide, bacterial display (enrichment ratio); higher = better substrate or ligand; peptides without Tyr show the background
Sequence (P62993 whole entry, looked up): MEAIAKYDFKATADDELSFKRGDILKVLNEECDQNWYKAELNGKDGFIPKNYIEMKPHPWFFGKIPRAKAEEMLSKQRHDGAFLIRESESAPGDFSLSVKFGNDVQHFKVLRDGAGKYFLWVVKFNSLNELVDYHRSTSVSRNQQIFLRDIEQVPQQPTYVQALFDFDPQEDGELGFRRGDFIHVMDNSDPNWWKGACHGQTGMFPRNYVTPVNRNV
Reported SH2 binding enrichment values for a set of sequences
Form rule: numeric answer, no unit written next to it.

Example sequences with recorded SH2 binding enrichment:
chain	SH2 binding enrichment
KSEMSYIDGEK [SORBS1_Y485]	0.697
KRPAVYIDEEA [EPM2A_Y304]	0.949
TSKLSYLDPRI [TOP1_Y723_N722S]	0.833
FRPHLYGTPSR [ADGRE2_Y670_S665F]	1.98

Using the record for FPKDVYVDSKD [NDUFAF4_Y69_L65P] , report its SH2 binding enrichment.
1.13

Another sequence: FLRKEYGGVNV [CBR3_Y81_L84V]
0.984

Another sequence: PKSWNYELPAT [PROM1_Y34_A31S]
0.618

Another sequence: SVVVPYEPPEL [TP53_Y220_V225L]
0.741

Another sequence: IHFAIYLLKYS [ARMC9_Y107]
1.44

Another sequence: AIQDAYMHITS [ADCY10_Y318]
0.825

Another sequence: GANFEYIIAEK [ECHS1_Y35]
0.576

Another sequence: FNNPAYFVLEG [INPPL1_Y986_YF]
1.01

Another sequence: PTKNDYWAMPA [WWOX_Y287_L291P]
0.732

Another sequence: ANAYIYDVQLP [L1CAM_Y420_V421D]
0.854

###

test system: AncSZ; assay: phosphorylation enrichment, bacterial display (enrichment ratio); higher = better substrate or ligand; peptides without Tyr show the background
measurementName: phosphorylation enrichment

Example sequences with recorded phosphorylation enrichment:
chain	result
STSFDYCRVPM [BST2_Y8_YF]	2.98
TINPIHEHVGF [CHN1_Y143_Y143H_YF]	0.433
RLLRGYRQDAY [HLA-A_Y137_F133L]	0.985

Next item in the queue.
Using the record for IVFTSYFLTIL [TAS2R16_Y239] , report its phosphorylation enrichment.
1.45

###

test system: c-Abl (mouse); experiment: phosphorylation enrichment, bacterial display (enrichment ratio); higher = better substrate or ligand; peptides without Tyr show the background
Could you please classify the records by phosphorylation enrichment using these ranges: A = under 0.6, B = from 0.6 up to 0.8, C = 0.8 and over

Please review the following examples before continuing.
chain	labelClass
KKHIPCREHKS [CSNK1G2_Y206_Y206C]	C
HSGLAYTMERS [GLUD1_Y512]	A
SVVVPYEPPEL [TP53_Y220_V225L]	A
VVVTKYCKEEL [ATP7B_Y1078_A1074V]	C
PYRSIYFSSPK [MPG_Y75]	C
ILTYKYLQKPM [KIT_Y547]	B
KALKQYRASPS [DDX27_Y763_G766S]	A
AAVNGYAFGGG [ECHS1_Y137]	A

Lab note: which band did SYCYRYRCAPR [SUMF1_Y344_A348P] land in?
A

Another sequence: GLETSYIEDNC [PAH_Y24_Q20L]
B

Another sequence: NRVEIYDKTVE [CYFIP1_Y108_E109D]
A

Another sequence: HEEDNYIELIP [NWD2_Y566]
C
